Catalogue of inhibition values
Experiment: M. tuberculosis H37Rv growth inhibitors, H37Rv strain (AID 1626);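 further: bacteria incubated seven days before Alamar blue readout; 0% = bacteria only wells and 100% = bacteria with antibiotic wells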
Conditions: active compounds read high, concentration not given here
In all, about 220,000 compounds went through this assay and about 2,000 (0.91%) were called active. Another 2% or so got no clear call; they are omitted. The list is a sample of the results. Results with a measured potency or affinity are listed apart.
Write it as a number; the unit % goes unstated.

Examples from the recorded data:
{"Compound": "Cc1cc(C(=O)OCC(=O)N2CCCC2)c2ccccc2n1", "Quantity Name": "inhibition", "Observed Value": -17.2}
{"Compound": "O=C1CS/C(=C/C(=O)c2ccccc2)N1", "Quantity Name": "inhibition", "Observed Value": -2.65}
{"Compound": "Nc1nc(Nc2ccc(Cl)cc2)nc(NCc2ccco2)c1[N+](=O)[O-]", "Quantity Name": "inhibition", "Observed Value": 18.8}
{"Compound": "COc1ccc(/C=N/NC(=O)c2ccn[nH]2)cc1Cn1nc(C)c([N+](=O)[O-])c1C", "Quantity Name": "inhibition", "Observed Value": 1.53}
{"Compound": "Cn1cc(/C=C(\\C#N)C(=O)Nc2ncc(Cc3cccc(Cl)c3)s2)c2ccccc21", "Quantity Name": "inhibition", "Observed Value": 4.07}
{"Compound": "Cc1ccc(C(=O)/C=C2/NC(=O)CS2)cc1", "Quantity Name": "inhibition", "Observed Value": -4.36}

Query: inhibition; subject: COc1ccc(-n2cnnc2SCC(=O)Nc2cccnc2Cl)cc1
2.1

Entry O=C(N/N=C/c1cc([N+](=O)[O-])ccc1O)C1CC1 please
9.15

What do you have for O=C(CSc1ccccn1)c1ccc(F)cc1 ?
-5.01

What do we get for CSc1ccc(CN(C)Cc2nc3cc(C(F)(F)F)ccc3c(=O)[nH]2)cc1 ?
91.3

Same for Cc1cccc(Nc2nc(N)c([N+](=O)[O-])c(NCc3ccco3)n2)c1
22.5

Also C=CCSc1nc(C)cc(C(=O)OCC)c1C#N , if possible.
-3.16

Okay, and CNC(=O)NC(=O)COC(=O)c1ccc(-n2c(C)ccc2C)cc1 ?
20.2

Same read-out for CCS(=O)(=O)N1CCN(C2Cc3ccccc3C2)CC1 ?
-4.5

Do the same for Cc1cc(Nc2cccc([N+](=O)[O-])c2)c2cccc(C)c2n1 please
-6.77

CCCn1c(=N)n(CC(O)COc2cccc(C)c2)c2ccccc21 (centres undefined) ?
4.16

Record: CCC1CCCCN1C(=O)COC(=O)c1n[nH]c2ccccc12 (centres undefined)
-3.06

Now consider Cc1nnsc1C(=O)N(Cc1ccccc1)C(C)C and answer again.
-4.27

Now consider CCc1ccc(-c2cc(C(F)(F)F)n3nc(C(=O)Nc4c(C)nn(Cc5ccccc5C)c4C)cc3n2)s1 and answer again.
2.87

And what about the compound O=[N+]([O-])c1ccc(N2CCN(C(=S)c3cccc([N+](=O)[O-])c3)CC2)cc1 ?
1.74

// query: COCCN1C(=O)N[C@@H](c2cccc(F)c2)C(C(=O)OC)=C1C
-7.87

Try this compound next: COc1ccc(OCC(O)Cn2c(=N)n(CCN3CCOCC3)c3ccccc32)cc1 (centres undefined)
3.12

These entries and their values trace back to PubChem BioAssay AID1626.
